# tested on: NHERF4_1, Q86UT5-2
# Sequence (Q86UT5 other isoform, or with tags, fused parts or gaps): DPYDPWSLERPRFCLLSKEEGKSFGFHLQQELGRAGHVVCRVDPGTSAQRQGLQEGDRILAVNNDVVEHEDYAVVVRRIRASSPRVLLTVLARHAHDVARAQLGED
# assay comment: holdup assay
# Parameters: key: below the threshold = too weak to quantify, mostly under pKd 3.1 to 4
# condition context: plain residues with an end cap or a label only (N-terminal biotin on a linker: ahx)
result type: pKd

In the examples that follow, each entry is paired with its recorded pKd.
binder	pKd
SAPATLSSRA [PDLIM2, Q96JY6]	below the threshold
HSATSVHTSV [MTMR1, Q13613]	below the threshold
AKPQPVDSWV [ARVCF, O00192]	below the threshold
KEYDDELTFF [USH1C, Q9Y6N9]	3.6
KDECVIATEV [DLL1, O00548]	below the threshold
ADENEQVSAV [RAPGEF6, Q8TEU7]	below the threshold
VNENQKEYFF [CNTNAP4, Q9C0A0]	3.51
SKKNELFSNL [NHERF1, O14745]	below the threshold

For the binder PKMKLNETSF [SHKBP1, Q8TBC3] , what pKd is on record?
3.73

Another binder to check: YNSFLSVTTV [PDZRN3, Q9UPQ7]
below the threshold
